# TEST METHOD NOTES: Plasma pharmacokinetics of buserelin after i.m. administration in cows
# Assay type: in vivo
# RUN CONDITIONS: female, Holstein, im, single i.m. dose 3 mg per cow, plasma, mean ± SD, n = 5
MEASURED ENDPOINT: AUC(0-inf)
Express your answer as a number followed by its unit.

Q) State its AUC(0-inf): CCNC(=O)[C@@H]1CCCN1C(=O)[C@H](CCCNC(=N)N)NC(=O)[C@H](CC(C)C)NC(=O)[C@@H](COC(C)(C)C)NC(=O)[C@H](Cc1ccc(O)cc1)NC(=O)[C@H](CO)NC(=O)[C@H](Cc1c[nH]c2ccccc12)NC(=O)[C@H](Cc1cnc[nH]1)NC(=O)[C@@H]1CCC(=O)N1
A) 5.99 ng·h/mL

====

# TEST METHOD NOTES: Plasma pharmacokinetics of buserelin after i.m. administration in cows
# Assay type: in vivo
# RUN CONDITIONS: female, Holstein, im, single i.m. dose 3 mg per cow, plasma, mean ± SD, n = 5
MEASURED ENDPOINT: Vd/F (L)
State just the number; it will be interpreted in L.

Q) State its Vd/F: CCNC(=O)[C@@H]1CCCN1C(=O)[C@H](CCCNC(=N)N)NC(=O)[C@H](CC(C)C)NC(=O)[C@@H](COC(C)(C)C)NC(=O)[C@H](Cc1ccc(O)cc1)NC(=O)[C@H](CO)NC(=O)[C@H](Cc1c[nH]c2ccccc12)NC(=O)[C@H](Cc1cnc[nH]1)NC(=O)[C@@H]1CCC(=O)N1
A) 840

====

# TEST METHOD NOTES: Plasma pharmacokinetics of buserelin after i.m. administration in cows
# Format: in vivo
# RUN CONDITIONS: female, Holstein, cow, plasma, im, 3 mg per cow, single i.m. dose 3 mg per cow, plasma, mean ± SD, n = 5, read-out: MRT0-∞
MEASURED ENDPOINT: MRT (h)
State just the number; it will be interpreted in h.

Q) State its MRT: CCNC(=O)[C@@H]1CCCN1C(=O)[C@H](CCCNC(=N)N)NC(=O)[C@H](CC(C)C)NC(=O)[C@@H](COC(C)(C)C)NC(=O)[C@H](Cc1ccc(O)cc1)NC(=O)[C@H](CO)NC(=O)[C@H](Cc1c[nH]c2ccccc12)NC(=O)[C@H](Cc1cnc[nH]1)NC(=O)[C@@H]1CCC(=O)N1
A) 2.16

====

# TEST METHOD NOTES: Plasma pharmacokinetics of buserelin after i.m. administration in pigs
# Assay type: in vivo
# RUN CONDITIONS: female, Danish Landrance × Yorkshire × Duroc, pig, plasma, im, 1 mg per pig, single i.m. dose 1 mg per pig, plasma, mean ± SD, n = 5, read-out: MRT0-∞
MEASURED ENDPOINT: MRT (h)
State just the number; it will be interpreted in h.

Q) State its MRT: CCNC(=O)[C@@H]1CCCN1C(=O)[C@H](CCCNC(=N)N)NC(=O)[C@H](CC(C)C)NC(=O)[C@@H](COC(C)(C)C)NC(=O)[C@H](Cc1ccc(O)cc1)NC(=O)[C@H](CO)NC(=O)[C@H](Cc1c[nH]c2ccccc12)NC(=O)[C@H](Cc1cnc[nH]1)NC(=O)[C@@H]1CCC(=O)N1
A) 2.35

====

# TEST METHOD NOTES: Plasma pharmacokinetics of buserelin after i.m. administration in cows
# Format: in vivo
# RUN CONDITIONS: female, Holstein, im, single i.m. dose 3 mg per cow, plasma, non-compartmental, mean ± SD, n = 5, read-out: t1/2 (elimination half-time) (converted)
# Protocol: The UPLC-MS/MS system (Waters Acquity UPLC and Waters Quattro Premier, Waters Co., USA) and the chromatographic column (Agilent Poroshell 120 EC-C18, 4.6 × 100 mm, 2.7 µm) were used in this study. The separation was performed with 0.1% formic acid in water (mobile phase solvent A) and 0.1% formic acid in acetonitrile (solvent B) with a flow rate of 0.6 mL/min. The gradient elution program was optimized as follow: 75% A (0–0.5 min), 10% A (5–7 min) 75% A (7.1–10 min). […]
MEASURED ENDPOINT: half-life (h)
State just the number; it will be interpreted in h.

Q) State its half-life: CCNC(=O)[C@@H]1CCCN1C(=O)[C@H](CCCNC(=N)N)NC(=O)[C@H](CC(C)C)NC(=O)[C@@H](COC(C)(C)C)NC(=O)[C@H](Cc1ccc(O)cc1)NC(=O)[C@H](CO)NC(=O)[C@H](Cc1c[nH]c2ccccc12)NC(=O)[C@H](Cc1cnc[nH]1)NC(=O)[C@@H]1CCC(=O)N1
A) 1.13
